protocolNotes: Maximum tolerated dose (MTD) in healthy folate-deficient rats
Type: in vivo
conditionInfo: rat, in vivo; folate deficient rats, sc biweekly for 2 weeks
measuredParameter: MTD at 2 weeks

Name the reported MTD at 2 weeks value associated with the compound Nc1nc(N)c2nc(CNc3ccc(C(=O)N[C@@H](CCC(=O)O)C(=O)O)cc3)cnc2n1 < 0.1 µmol/kg
